Hello, the source for this data is patent US11617726B2, in case you need it.

Tested on: Acinetobacter baumannii isolates
Assay: Antimicrobial susceptibility test, disc diffusion method (CLSI M100-S24)
Format: cell-based
Settings: isolate AB18; disc diffusion
Inhibition zone: recorded values
Lab book: enter the figure in mm, no units written.

In [3]: df
Out[3]:
                           substance_smiles  unit_annotation  measurement
0  C[C@H]1[C@H](NC(=O)/C(=N\OC(C)(C)C(=O)O)c2csc(N)n2)C(=O)N1S(=O)(=O)O               mm           10

Now look at this entry.
// query Give reported Inhibition zone value for C[C@H]1COc2c(N3CCN(C)CC3)c(F)cc3c(=O)c(C(=O)O)cn1c23
// result 13

====

Inhibition zone: recorded values
Tested on: Acinetobacter baumannii isolates
Experiment: Antimicrobial susceptibility test, disc diffusion method (CLSI M100-S24)
Type: cell-based
Settings: isolate AB5; disc diffusion
Lab book: enter the figure in mm, no units written.

molecule	unit_annotation	Inhibition zone
C[C@H]1COc2c(N3CCN(C)CC3)c(F)cc3c(=O)c(C(=O)O)cn1c23	mm	19
CO/N=C(\C(=O)N[C@@H]1C(=O)N2C(C(=O)[O-])=C(C[N+]3(C)CCCC3)CS[C@H]12)c1csc(N)n1 [FEP, Cefepime]	mm	7
C[C@@H](O)[C@H]1C(=O)N2C(C(=O)O)=C(SCCN=CN)C[C@H]12	mm	8

// query Give reported Inhibition zone value for NCC[C@H](O)C(=O)N[C@@H]1C[C@H](N)[C@@H](O[C@H]2O[C@H](CN)[C@@H](O)[C@H](O)[C@H]2O)[C@H](O)[C@H]1O[C@H]1O[C@H](CO)[C@@H](O)[C@H](N)[C@H]1O
// result 7

// query Give reported Inhibition zone value for CC(C)(O/N=C(\C(=O)N[C@@H]1C(=O)N2C(C(=O)[O-])=C(C[n+]3ccccc3)CS[C@H]12)c1csc(N)n1)C(=O)O
// result 9

====

System: Acinetobacter baumannii isolates
Test: Antimicrobial susceptibility test, disc diffusion method (CLSI M100-S24)
Type: cell-based
Conditions: isolate AB30; disc diffusion
Inhibition zone: recorded values
Lab book: enter the figure in mm, no units written.

The cases that follow already have their Inhibition zone on record.
substance_smiles	system_name	unit_annotation	measurement
C[C@@H](O)[C@H]1C(=O)N2C(C(=O)O)=C(SCCN=CN)C[C@H]12	Acinetobacter baumannii isolates	mm	9
NCC[C@H](O)C(=O)N[C@@H]1C[C@H](N)[C@@H](O[C@H]2O[C@H](CN)[C@@H](O)[C@H](O)[C@H]2O)[C@H](O)[C@H]1O[C@H]1O[C@H](CO)[C@@H](O)[C@H](N)[C@H]1O	Acinetobacter baumannii isolates	mm	15
O=C(N[C@H](CO)[C@H](O)c1ccc([N+](=O)[O-])cc1)C(Cl)Cl	Acinetobacter baumannii isolates	mm	11
CN(C)[C@@H]1C(O)=C(C(N)=O)C(=O)[C@@]2(O)C(O)=C3C(=O)c4c(O)cccc4[C@@](C)(O)[C@H]3C[C@@H]12	Acinetobacter baumannii isolates	mm	20
NC[C@@H]1O[C@H](O[C@H]2[C@@H](O)[C@H](O[C@@H]3[C@@H](O)[C@H](N)C[C@H](N)[C@H]3O[C@H]3O[C@H](CN)[C@@H](O)[C@H](O)[C@H]3N)O[C@@H]2CO)[C@H](N)[C@@H](O)[C@@H]1O	Acinetobacter baumannii isolates	mm	15

// query Give reported Inhibition zone value for C[C@H]1[C@H](NC(=O)/C(=N\OC(C)(C)C(=O)O)c2csc(N)n2)C(=O)N1S(=O)(=O)O
// result 9

// query Give reported Inhibition zone value for CCN1CCN(C(=O)N[C@@H](C(=O)N[C@@H]2C(=O)N3[C@@H]2SC(C)(C)[C@@H]3C(=O)O)c2ccccc2)C(=O)C1=O
// result 8

// query Give reported Inhibition zone value for C[C@H]1COc2c(N3CCN(C)CC3)c(F)cc3c(=O)c(C(=O)O)cn1c23
// result 15
